The molecules listed here are annotated with their melting point.

Worked examples, 3 molecules total:
Cc1cc(-n2c(C(=O)Nc3ccc4c(ccn4C)c3)cc3cc(F)ccc32)ccn1 [Compound No. 9]    213 to 216 °C
Cn1ccc2cc(NC(=O)c3cc4cc(F)ccc4n3-c3ccccn3)ccc21 [Compound No. 3]    210 to 211 °C
Cc1nc2cc(NC(=O)c3cc4cc(F)ccc4n3-c3cccnc3)ccc2n1C [Compound No. 6]    139 to 141 °C

(Q) Tell me its melting point given Cc1ccnc(-n2c(C(=O)Nc3ccc4c(c3)nc(C)n4C)cc3cc(F)ccc32)c1 [Compound No. 8] as the entry.
(A) 270 to 278 °C

(Q) In one line, give reported melting point of the entry Cc1nc2cc(NC(=O)c3cc4cc(F)ccc4n3-c3ccncc3)ccc2n1C [Compound No. 4] .
(A) 226 to 229 °C
